tested target: human recombinant serotonin (5-Hydroxytryptamine) 5-HT7 receptor (Homo sapiens)
Sequence (P34969 whole entry): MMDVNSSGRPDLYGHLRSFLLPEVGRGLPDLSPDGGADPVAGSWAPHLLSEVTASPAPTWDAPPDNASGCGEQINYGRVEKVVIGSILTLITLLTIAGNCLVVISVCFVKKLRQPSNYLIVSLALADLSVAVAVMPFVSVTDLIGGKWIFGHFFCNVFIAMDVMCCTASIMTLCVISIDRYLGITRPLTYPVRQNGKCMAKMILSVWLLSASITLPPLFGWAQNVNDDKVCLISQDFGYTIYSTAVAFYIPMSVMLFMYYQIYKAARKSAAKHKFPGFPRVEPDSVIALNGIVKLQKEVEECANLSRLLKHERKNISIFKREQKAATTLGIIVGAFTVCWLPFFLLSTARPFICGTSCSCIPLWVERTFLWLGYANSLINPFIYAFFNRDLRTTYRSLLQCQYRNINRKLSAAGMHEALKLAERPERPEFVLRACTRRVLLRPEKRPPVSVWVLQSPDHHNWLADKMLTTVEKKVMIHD
assay remarks: Serotonin 5-HT7 radioligand binding assay ([3H]LSD)
reported conditions: compound at 0.1 μM; 5.5 nM [3H]LSD; CHO cells; read-out: Percent Inhibition of ligand binding, Serotonin (0.1 μM) 5-HT7
reported metric: inhibition at 0.1 µM

For orientation, consider the following solved cases.
Cc1ccc2c(c1)c1c(n2CCc2ccc(C)nc2)CC(C)N(C)C1 (centres unmarked) : 74%
CC[C@](O)(Cn1c2c(c3cc(C)ccc31)CN(C)CC2)c1ccncc1 : 25%
Cc1ccc2c(c1)c1c(n2CC(C)c2ccncc2)CCN(C)C1 (centres unmarked) : 93%
COc1cccc2c3c(n(CC(C)(O)c4ccncc4)c12)CCN(C)C3 (centres unmarked) : -1%

Next:
# input What measured inhibition at 0.1 µM goes with CC[C@](O)(Cn1c2c(c3cc(C)ccc31)CN(C)CC2)c1ccc(F)cc1 ?
# output 16%

Data credit: patent US9255094B2
